These measurements were taken from paper PMC8882856.

# ASSAY TARGET: human α2A‐adrenoceptor (Homo sapiens, UniProt P08913)
# Sequence (P08913 1-465): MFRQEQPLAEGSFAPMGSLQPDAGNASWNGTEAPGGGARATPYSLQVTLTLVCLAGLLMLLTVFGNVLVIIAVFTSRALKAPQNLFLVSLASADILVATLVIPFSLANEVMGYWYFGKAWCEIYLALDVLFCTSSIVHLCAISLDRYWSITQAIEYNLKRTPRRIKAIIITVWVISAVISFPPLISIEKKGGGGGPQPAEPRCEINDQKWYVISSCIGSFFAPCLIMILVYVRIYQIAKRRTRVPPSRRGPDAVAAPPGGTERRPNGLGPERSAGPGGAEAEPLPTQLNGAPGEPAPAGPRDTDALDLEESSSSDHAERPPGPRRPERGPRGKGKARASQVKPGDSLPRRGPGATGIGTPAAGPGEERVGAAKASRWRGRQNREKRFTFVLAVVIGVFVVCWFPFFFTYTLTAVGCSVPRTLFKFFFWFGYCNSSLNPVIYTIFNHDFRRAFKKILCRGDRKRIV
# TEST METHOD NOTES: ^3H‐rauwolscine whole cell competition binding, CHO‐α2A cells
MEASURE NAME: IC50

- CC(C)(C)NCC(O)COc1cccc2[nH]c(=O)[nH]c12 (centres unmarked): > 1000 µM

q: Report IC50 for CN(C)CCCC1(c2ccc(F)cc2)OCc2cc(C#N)ccc21 (centres unmarked) tested on human α2A‐adrenoceptor (Homo sapiens, UniProt P08913).
a: > 100 µM

---

# ASSAY TARGET: human β2‐adrenoceptor (Homo sapiens, UniProt P07550)
# Sequence (P07550 whole entry): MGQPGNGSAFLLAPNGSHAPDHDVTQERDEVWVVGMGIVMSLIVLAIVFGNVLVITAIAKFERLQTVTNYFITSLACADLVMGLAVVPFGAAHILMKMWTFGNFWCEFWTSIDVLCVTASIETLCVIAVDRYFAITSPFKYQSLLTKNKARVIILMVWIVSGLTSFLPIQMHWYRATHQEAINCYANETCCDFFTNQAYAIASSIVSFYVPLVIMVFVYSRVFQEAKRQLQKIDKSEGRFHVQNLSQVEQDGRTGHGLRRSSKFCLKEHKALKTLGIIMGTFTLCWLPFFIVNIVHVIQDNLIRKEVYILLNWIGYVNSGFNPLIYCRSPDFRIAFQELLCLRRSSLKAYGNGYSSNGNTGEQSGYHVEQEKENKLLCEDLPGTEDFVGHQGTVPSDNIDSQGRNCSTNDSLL
# Assay type: binding
# STATED CONDITIONS: given as log KD (negative values); 3H-CGP12177 whole cell binding, CHO cells; mean ± s.e.mean
MEASURE NAME: Log KD β2

* COc1cc2nc(N3CCN(C(=O)C4CCCO4)CC3)nc(N)c2cc1OC (stereo not drawn) [terazosin] | No binding to -4
* O=C1Cc2cc(CCN3CCN(c4nsc5ccccc45)CC3)c(Cl)cc2N1 [ziprasidone] | No binding to -4
* CN(C)CCCC1(c2ccc(F)cc2)OCc2cc(C#N)ccc21 (stereo not drawn) [citalopram] | No binding to -4

---

# ASSAY TARGET: human α2A‐adrenoceptor (Homo sapiens)
# TEST METHOD NOTES: ^3H‐rauwolscine whole cell competition binding, CHO‐α2A cells
# STATED CONDITIONS: ratio of KD values
MEASURE NAME: Selectivity ratio α2A vs α2B (higher affinity for α2A)

- COc1cccc(OC)c1OCCNCC1CSc2ccccc2O1 (stereo not shown) [benoxathian]: 16.2
- CCS(=O)(=O)N1CCC[C@@H]2CN3CCc4cc(OC)ccc4[C@@H]3C[C@@H]21 [RS79948]: 2.3
- Cc1ccc(Sc2ccccc2N2CCNCC2)c(C)c1 [vortioxetine]: 2.0
- CCOc1ccccc1OCCN[C@H](C)Cc1ccc(OC)c(S(N)(=O)=O)c1 [tamsulosin]: 10.5

---

Form: system (human α2B‐adrenoceptor (Homo sapiens)), quantity (Kd), values below.
MEASURE NAME: Kd (nM)

[A] COc1ccccc1N1CCN(CC2CN3C(=O)N(C)c4ccccc4C3=N2)CC1 (stereo not shown)
[B] Cc1c[nH]c(=O)n(CCCN2CCN(c3ccccc3OCC(F)(F)F)CC2)c1=O
[C] O=C1c2ccccc2CCC1CNCCc1ccc(O)cc1 (stereo not shown)
[D] O=C1Nc2ccccc2C2=NC(CN3CCN(c4ccccc4)CC3)CN12 (stereo not shown)
q: Sort the items above by Kd, starting with the smallest value. As an answer, provide the labels arranged in the order called for.
a: C, B, D, A
